Task for the reader: assign each of the following compounds its reported Inhibition.
Tested on: Klebsiella pneumoniae
condition label: Concentration 32 ug.mL-1;; ASSAY_TEST Inhibition of Bacterial Growth; detection method Absorption (OD600); MEDIA CAMHB; plate type 384well; NBS; CORNING #3640; time 18 hr
Description: Antibacterial activity against Klebsiella pneumoniae MDR ATCC 70063 (CO-ADD:GN_003); MIC in CAMBH media using NBS plates, by OD(600)
Measured potencies and affinities stand elsewhere.
API: value field is a number in %; no unit string.

### Prompt # Inhibition lookup, item Cc1ccc2c(c1)N(C(=O)Cn1nc3ccc(Sc4ccccc4)nn3c1=O)CCO2
### Response 4.6

### Prompt Follow-up item: CC(C)c1nnc2c(SCC(=O)Nc3ccc4c(c3)OCO4)nc3ccccc3n12
### Response 4.73

### Prompt Follow-up item: CC(C)CCn1c(=O)c2sccc2n2c(=O)n(CCOc3ccccc3)nc12
### Response 15.26

### Prompt Follow-up item: COc1ccc(C)cc1NC(=O)Cn1nc2ccc(SC(C)(C)C)nn2c1=O
### Response 5.72

### Prompt Follow-up item: CCc1nnc2c(SCC(=O)Nc3ccc(C(C)=O)cc3)nc3ccccc3n12
### Response 9.87

### Prompt Follow-up item: O=C(Cn1nc2c(N3CCOCC3)nccn2c1=O)NCc1ccc(Cl)cc1
### Response 8.43

### Prompt Follow-up item: CSc1ccc(CNC(=O)CCc2nnc3c(N4CCCCC4)nc4ccccc4n23)cc1
### Response 12.88

### Prompt Follow-up item: CCOc1ccc(-n2ccn3c(SCC(=O)Nc4ccc(C)c(C)c4)nnc3c2=O)cc1
### Response -8.39

### Prompt Follow-up item: Cc1cccc(Cn2nc3n(CCc4ccccc4)c(=O)c4sccc4n3c2=O)c1
### Response 3.95

### Prompt Follow-up item: COc1ccc(NC(=O)Cn2nc3ccc(-c4ccc(Cl)cc4)nn3c2=O)cc1OC
### Response 8.45
